- measured target: human apical sodium-dependent transporter (SLC10A2, ASBT) (Homo sapiens)
- protocol details: ASBT cis-inhibition of taurocholate uptake in ASBT-MDCK cells
- conditions: Ki, inhibitor concentration range 0-200 μM; mean±S.E.
Entries and their Ki values follow.
Write it as a number; the unit µM goes unstated.

Answered examples (3):
INSERT INTO measurements (molecule, measured_value) VALUES
  ('Clc1ccc(C(Cn2ccnc2)OCc2ccsc2Cl)c(Cl)c1 (stereo not shown)', 33.7),
  ('Cc1c(OCC(F)(F)F)ccnc1C[S+]([O-])c1nc2ccccc2[nH]1 (stereo not shown)', 134),
  ('CC(C)n1c(/C=C/C(O)CC(O)CC(=O)O)c(-c2ccc(F)cc2)c2ccccc21 (stereo not shown)', 25.1);

Challenge: Determine from records and report Ki for COC(=O)C1=C(C)NC(C)=C(C(=O)OC(C)C)C1c1cccc2nonc12 (stereo not shown)
Response given: 36.4

---

- measured target: UniProt:Q12908
- protocol details: ASBT cis-inhibition of taurocholate uptake in ASBT-MDCK cells
- conditions: Reference Ki, from the comprehensive inhibition profile
pKi: −log10 of the molar value.
Classify as follows. Reported pKi greater than or equal to 4: 1. Reported pKi below: -1.

Solved cases (4 shown):
INSERT INTO measurements (compound, label) VALUES
  ('CC(C)(C#N)c1cc(Cn2cncn2)cc(C(C)(C)C#N)c1', -1),
  ('NS(=O)(=O)c1cc2c(cc1C(F)(F)F)NC(Cc1ccccc1)NS2(=O)=O (stereo not shown) [Bendroflumethiazide, bendroflumethiazide]', -1),
  ('CN1CCN(CC/C=C2/c3ccccc3Sc3ccc(S(=O)(=O)N(C)C)cc32)CC1', -1),
  ('CN1CCCCC1CCN1c2ccccc2Sc2ccc([S+](C)[O-])cc21 (stereo not shown) [Mesoridazine besylate]', 1);

Challenge: Kindly determine if pKi recorded for CC(C)n1c(/C=C/C(O)CC(O)CC(=O)O)c(-c2ccc(F)cc2)c2ccccc21 (stereo not shown) is above or exactly 4.
Response given: 1

Challenge: Kindly determine if pKi recorded for CC(C)OC(=O)CCC/C=C\C[C@@H]1[C@@H](CC[C@@H](O)CCc2ccccc2)[C@H](O)C[C@@H]1O is above or exactly 4.
Response given: 1

---

- measured target: human apical sodium-dependent transporter (SLC10A2, ASBT) (Homo sapiens)
- Sequence (Q12908 1-348): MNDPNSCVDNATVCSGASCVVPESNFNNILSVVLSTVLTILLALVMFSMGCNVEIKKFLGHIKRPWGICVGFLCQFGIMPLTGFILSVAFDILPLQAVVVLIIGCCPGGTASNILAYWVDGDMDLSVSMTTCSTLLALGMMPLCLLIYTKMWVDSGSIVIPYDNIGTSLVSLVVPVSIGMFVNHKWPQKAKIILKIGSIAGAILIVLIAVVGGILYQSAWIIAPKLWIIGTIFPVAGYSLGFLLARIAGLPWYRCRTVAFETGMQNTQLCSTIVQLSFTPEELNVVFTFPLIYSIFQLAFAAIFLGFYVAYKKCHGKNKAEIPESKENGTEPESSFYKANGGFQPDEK
- conditions: 500 µM
Counter-ions that a name gives are not always drawn.
Classify as follows. Reported inhibition greater than or equal to 70%: y. Reported inhibition below: n.

Solved cases (4 shown):
INSERT INTO results (compound, label) VALUES
  ('CN1CCCCC1CCN1c2ccccc2Sc2ccc([S+](C)[O-])cc21 (stereo not drawn) [Mesoridazine besylate]', 'y'),
  ('CC(C)OC(=O)CCC/C=C\C[C@@H]1[C@@H](CC[C@@H](O)CCc2ccccc2)[C@H](O)C[C@@H]1O', 'y'),
  ('CCCCOc1cc(C(=O)NCCN(CC)CC)c2ccccc2n1 [Dibucaine hydrochloride, dibucaine hydrochloride]', 'y'),
  ('Clc1ccc(C(Cn2ccnc2)OCc2ccsc2Cl)c(Cl)c1 (stereo not drawn)', 'y');

Challenge: Kindly determine if inhibition recorded for CC(C)(C#N)c1cc(Cn2cncn2)cc(C(C)(C)C#N)c1 is above or exactly 70%.
Response given: n

Challenge: Kindly determine if inhibition recorded for CCCCNc1cc(C(=O)O)cc(S(N)(=O)=O)c1Oc1ccccc1 [Bumetanide, bumetanide] is above or exactly 70%.
Response given: n

Challenge: Kindly determine if inhibition recorded for NS(=O)(=O)c1cc2c(cc1C(F)(F)F)NC(Cc1ccccc1)NS2(=O)=O (stereo not drawn) [Bendroflumethiazide, bendroflumethiazide] is above or exactly 70%.
Response given: n

Challenge: Kindly determine if inhibition recorded for CC(C)n1c(/C=C/C(O)CC(O)CC(=O)O)c(-c2ccc(F)cc2)c2ccccc21 (stereo not drawn) is above or exactly 70%.
Response given: y

Challenge: Kindly determine if inhibition recorded for N=C(N)c1ccc(OCCCCCOc2ccc(C(=N)N)cc2)cc1 [Pentamidine Isethionate, pentamidine isethionate] is above or exactly 70%.
Response given: n
